Tested on: winter wheat (Vershin variety)
Experiment: Winter wheat seed treatment with BHMPA salts: germinating power (length and mass of roots and sprouts)
Assay type: in vivo
Settings: 1·10^−7% solution
quantity_name: Mass, wet, root, + % to control (%)

compound="O=P([O-])(CO)CO.O=P([O-])(CO)CO.[Mg+2] [Mg-salt, Magnesium BHMPA Salt]" quantity_name="Mass, wet, root, + % to control" unit_text=% reported=3
compound="O=P([O-])(CO)CO.[Na+] [Na-salt, Sodium BHMPA Salt]" quantity_name="Mass, wet, root, + % to control" unit_text=% reported=5.7
compound="O=P([O-])(CO)CO.O=P([O-])(CO)CO.[Zn+2] [Zn-salt, Zinc BHMPA Salt]" quantity_name="Mass, wet, root, + % to control" unit_text=% reported=1
compound="O.O.O=P([O-])(CO)CO.O=P([O-])(CO)CO.[Mn+2] [Mn-salt, Manganese BHMPA Salt]" quantity_name="Mass, wet, root, + % to control" unit_text=% reported=14.5
compound="O.O.O=P([O-])(CO)CO.O=P([O-])(CO)CO.[Co+2] [Co-salt, Cobalt BHMPA Salt]" quantity_name="Mass, wet, root, + % to control" unit_text=% reported=6
compound="O=P([O-])(CO)CO.O=P([O-])(CO)CO.[Ca+2] [Ca-salt, Calcium BHMPA Salt]" quantity_name="Mass, wet, root, + % to control" unit_text=% reported=32

###

System: corn (Krasnodar 385 MV variety)
Experiment: Corn seed treatment with BHMPA salts: germination energy and germination rate
Assay type: in vivo
Conditions: 1·10^−12% solution
quantity_name: Germination energy (%)

compound="O=P([O-])(CO)CO.[Na+] [Na-salt, Sodium BHMPA Salt]" quantity_name="Germination energy" unit_text=% reported=82.0
compound="O.O.O=P([O-])(CO)CO.O=P([O-])(CO)CO.[Mn+2] [Mn-salt, Manganese BHMPA Salt]" quantity_name="Germination energy" unit_text=% reported=80.3
compound="O=P([O-])(CO)CO.O=P([O-])(CO)CO.[Zn+2] [Zn-salt, Zinc BHMPA Salt]" quantity_name="Germination energy" unit_text=% reported=79.0
compound="O=P([O-])(CO)CO.O=P([O-])(CO)CO.[Ca+2] [Ca-salt, Calcium BHMPA Salt]" quantity_name="Germination energy" unit_text=% reported=82.3
